Assay: Cytotoxicity in HepG2 cells, 4 days, Resazurin assay
Details: human
Measured CC50 at 4 days, listed per entry for reference.

{"columns": ["molSmiles", "CC50 at 4 days"],
 "data": [
  ["O=C(Nc1ccccc1)c1cc(S(=O)(=O)N2CCCCC2)c(Cl)cc1Cl", "79.6 µM"],
  ["O=C(Nc1ccc(F)cc1)c1cc(S(=O)(=O)N2CCCCC2)cs1", "35.7 µM"]
]}

----------
Measured CC50 at 6 days, listed per entry for reference.
Assay: Cytotoxicity in HepG2 cells using CellTiter-Blue (6 days)
Details: human

{"columns": ["molecule", "CC50 at 6 days"],
 "data": [
  ["O=C(Nc1ccccc1Cl)c1cc(S(=O)(=O)NC2CCCCC2)ccc1F [Compound 42]", "37.2 µM"],
  ["Cc1cccc(NC(=O)c2cc(S(=O)(=O)N3CCCCC3)ccc2Cl)c1 [Compound 22]", "> 25 µM"],
  ["Cc1cccc(NC(=O)c2cc(S(=O)(=O)N3CCOCC3)ccc2Cl)c1 [Compound 27]", "> 25 µM"],
  ["COc1ccc(NC(=O)c2ccc(Cl)c(S(=O)(=O)N3CCCCCC3)c2)cc1 [Compound 32]", "9.9 µM"],
  ["O=C(Nc1ccccc1)c1cc(S(=O)(=O)NC2CCCCC2)ccc1F [Compound 19]", "42.5 µM"],
  ["O=C(Nc1ccc(F)cc1)c1cc(S(=O)(=O)N2CCOCC2)ccc1Cl [Compound 29]", "> 25 µM"],
  ["O=C(Nc1ccc(Br)cc1)c1ccc(Cl)c(S(=O)(=O)N2CCCCCC2)c1 [Compound 30]", "> 25 µM"],
  ["O=C(Nc1ccccc1)c1cc(S(=O)(=O)NCc2ccccc2)ccc1Cl [Compound 25]", "> 25 µM"],
  ["O=C(Nc1cccc(Cl)c1)c1cc(S(=O)(=O)NC2CCCCC2)ccc1F [Compound 43]", "36.3 µM"],
  ["O=C(Nc1ccccc1Cl)c1ccc(Cl)c(S(=O)(=O)N2CCCCCC2)c1 [Compound 33]", "> 25 µM"],
  ["O=C(Nc1ccc(F)cc1)c1cc(S(=O)(=O)NC2CCCCC2)ccc1F [Compound 18]", "51.6 µM"],
  ["O=C(Nc1cccc(F)c1)c1cc(S(=O)(=O)N2CCCC2)c(Cl)cc1Cl [Compound 24]", "> 25 µM"],
  ["O=C(Nc1ccc(Cl)cc1)c1cc(S(=O)(=O)NC2CCCCC2)ccc1F [Compound 38]", "18.4 µM"]
]}

----------
Measured pEC50, listed per entry for reference.
Tested on: HBV
Assay: Anti-HBV activity in stable transfected HepG2.2.15 cell line (HBV DNA from secreted virions, realtime PCR)
Type: cell-based
Conditions: Hepatitis B virus, HepG2.2.15, 144 h, HepG2.2.15 cells, 6 days of treatment, secreted virion HBV DNA; read-out: HepG2 2.15 EC50
pEC50: −log10 of the molar value.

{"columns": ["molSmiles", "pEC50"],
 "data": [
  ["N#Cc1cc(NC(=O)c2cccc(S(=O)(=O)N[C@H]3CCOC3)c2)ccc1F", 6.09],
  ["COC(=O)N1CC(NS(=O)(=O)c2cccc(C(=O)Nc3ccc(F)c(C)c3)c2)C1", 6.66],
  ["CC(C)NS(=O)(=O)c1cccc(C(=O)Nc2ccc(F)c(C(F)F)c2)c1", 7.00],
  ["O=C(Nc1cccc(F)c1)c1cc(S(=O)(=O)N2CCCC2)c(Cl)cc1Cl", 6.10]
]}

----------
Test: Cytotoxicity in HepG2 cells, 4 days, Resazurin assay
Conditions: human, HepG2 cells
Measured CC50 at 4 days, listed per entry for reference.

{"columns": ["molecule", "CC50 at 4 days"],
 "data": [
  ["O=C(Nc1ccccc1)c1cccc(S(=O)(=O)NC2CCCC2)c1", "41.1 µM"],
  ["O=C(Nc1ccc(C(F)(F)F)cc1)c1cc(S(=O)(=O)NC2CCCC2)ccc1F", "11.3 µM"],
  ["Cc1cc(NC(=O)c2cccc(S(=O)(=O)N[C@@H]3CCCC[C@H]3O)c2)ccc1F (racemic)", "> 25 µM"],
  ["O=C(Nc1ccc(F)cc1)c1cccc(S(=O)(=O)N2CCCC2)c1", "97 µM"],
  ["Cc1cc(NC(=O)c2cccc(S(=O)(=O)N[C@@H]3c4ccccc4C[C@H]3O)c2)ccc1F", "> 25 µM"],
  ["Cc1ccc(S(=O)(=O)NC(C)(C)C)c(F)c1C(=O)Nc1ccc(F)c(F)c1", "> 25 µM"],
  ["Cc1cc(NC(=O)c2cccc(S(=O)(=O)N[C@@H]3CCC[C@@H]3O)c2)ccc1F", "> 25 µM"],
  ["Cc1ccc(S(=O)(=O)NC2(C)COC2)c(F)c1C(=O)Nc1ccc(F)c(C#N)c1", "> 25 µM"]
]}

----------
Test system: HBV
Experiment: Anti-HBV activity in stable transfected HepG2.2.15 cell line (HBV DNA from secreted virions, realtime PCR)
Format: cell-based
Conditions: Hepatitis B virus, HepG2.2.15, 144 h, HepG2.2.15 cells, 6 days of treatment, secreted virion HBV DNA; read-out: HepG2 2.15 EC50
pEC50: −log10 of the molar value.

{"columns": ["molecule", "pEC50"],
 "data": [
  ["Cc1cc(NC(=O)c2cccc(S(=O)(=O)NC3COCC3O)c2)ccc1F (stereo not shown) [Compound 171]", 6.10],
  ["Cc1cc(NC(=O)c2cccc(S(=O)(=O)N[C@@H]3CCCC[C@H]3O)c2)ccc1F (racemic) [Compound 130]", 6.06],
  ["Cc1cccc(NC(=O)c2cc(S(=O)(=O)N3CCCCC3)c(Cl)cc2Cl)c1 [Compound 17]", 6.25],
  ["CCC1(NS(=O)(=O)c2cccc(C(=O)Nc3ccc(F)c(C)c3)c2)CC1 [Compound 85]", 7.30]
]}

----------
Measured EC50, listed per entry for reference.
Tested on: HBV
Test: Anti-HBV activity in stable transfected HepG2.2.15 cell line (HBV DNA from secreted virions, realtime PCR)
Assay type: cell-based
Details: Hepatitis B virus, HepG2.2.15, 144 h, HepG2.2.15 cells, 6 days of treatment, secreted virion HBV DNA; read-out: HepG2 2.15 EC50

{"columns": ["molSmiles", "unitName", "EC50"],
 "data": [
  ["CCN(CC)S(=O)(=O)c1ccc(Cl)c(C(=O)Nc2ccccc2)c1", "nM", 1040],
  ["Cc1cc(NC(=O)c2cccc(S(=O)(=O)N[C@H]3CCOC3)c2Cl)ccc1F", "nM", 330],
  ["CC(C)NS(=O)(=O)c1cccc(C(=O)Nc2ccc(F)cc2)c1", "nM", 740],
  ["Cc1cc(NC(=O)c2cccc(S(=O)(=O)N[C@H]3CCOC3)c2)ccc1F", "nM", 120],
  ["Cc1cccc(NC(=O)c2cc(S(=O)(=O)N3CCCCC3)ccc2Cl)c1", "nM", 520],
  ["Cc1cc(NC(=O)c2cc(S(=O)(=O)NC(C)C)oc2C)ccc1F", "nM", 730],
  ["Cc1cc(NC(=O)c2cc(S(=O)(=O)N[C@H]3CCOC3)ccc2C(F)(F)F)ccc1F", "nM", 1910],
  ["Cc1cc(NC(=O)c2cccc(S(=O)(=O)N[C@@H]3CCc4ccccc4[C@@H]3O)c2)ccc1F", "nM", 660]
]}

----------
Experiment: Cytotoxicity in HepG2 cells, 4 days, Resazurin assay
Details: human, HepG2 cells
Measured CC50 at 4 days, listed per entry for reference.

{"columns": ["molecule", "unitName", "comparator", "CC50 at 4 days"],
 "data": [
  ["O=C(Nc1ccccc1)c1cc(S(=O)(=O)N2CCCCC2)cs1", "µM", "=", 46.7],
  ["O=C(Nc1cccc(C(F)(F)F)c1)c1cccc(S(=O)(=O)NC2CCCC2)c1", "µM", "=", 15.3],
  ["Cc1cc(NC(=O)c2cccc(S(=O)(=O)NC3CCN(C(=O)OC(C)(C)C)C3)c2)ccc1F (stereo not shown)", "µM", ">", 25],
  ["CC1(NS(=O)(=O)c2cccc(C(=O)Nc3ccc(F)c(O)c3)c2)COC1", "µM", ">", 25]
]}

----------
Measured CC50 at 4 days, listed per entry for reference.
Test: Cytotoxicity in HepG2 cells, 4 days, Resazurin assay
Settings: human, HepG2 cells

{"columns": ["compound", "CC50 at 4 days"],
 "data": [
  ["O=C(Nc1ccc(F)cc1)c1ccc(S(=O)(=O)N2CCCCC2)o1 [Compound 57]", "52.1 µM"],
  ["Cc1cc(NC(=O)c2cccc(S(=O)(=O)N[C@@H]3CCCC[C@@H]3O)c2)ccc1F (racemic) [Compound 132]", "> 25 µM"],
  ["O=C(Nc1ccc(F)c(F)c1)c1cc(S(=O)(=O)N[C@H]2CCOC2)ccc1F [Compound 101]", "> 25 µM"],
  ["Cc1cc(NC(=O)c2cc(F)cc(S(=O)(=O)NC(C)C)c2)ccc1F [Compound 240]", "> 25 µM"],
  ["Cc1cc(NC(=O)c2cc(S(=O)(=O)NC3(C)COC3)ccc2Cl)ccc1F [Compound 232]", "> 25 µM"]
]}
